Property: IC50; scope: individual compounds
target: JAK2 (recombinant purified GST-tagged catalytic domain) (Homo sapiens (Human)); experiment: Jak Biochemical HTRF Assay (JAK2); conditions: [ATP] 8.5 μM
Sequence (O60674 849-1124): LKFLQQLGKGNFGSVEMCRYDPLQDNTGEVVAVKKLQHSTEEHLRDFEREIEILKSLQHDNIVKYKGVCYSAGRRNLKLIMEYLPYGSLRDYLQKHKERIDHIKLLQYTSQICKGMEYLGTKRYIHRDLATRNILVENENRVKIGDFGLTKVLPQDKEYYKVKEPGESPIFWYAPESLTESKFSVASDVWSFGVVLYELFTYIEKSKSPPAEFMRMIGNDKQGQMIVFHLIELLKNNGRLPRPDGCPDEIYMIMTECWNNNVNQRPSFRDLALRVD
// units = nM; emit number, no label

// worked examples, IC50 included
CC(C)(C)OC(=O)N1CC(CC#N)(n2nc(Nc3ccccc3)c3c(=O)[nH]ccc32)C1	25
Cc1cc(Nc2nn([C@]3(CC#N)CCCOC3)c3cc[nH]c(=O)c23)ccc1C(=O)N1CCCC[C@@H]1C	0.62
Cc1cc(Nc2nn([C@]3(CC#N)CCCOC3)c3cc[nH]c(=O)c23)ccc1C(=O)N1CCOCC1	0.76

Query: Report IC50 on JAK2 (recombinant purified GST-tagged catalytic domain) (Homo sapiens (Human)) for this entry: `CN(C)S(=O)(=O)c1ccc(Nc2nn(C3(CC#N)CCN(C(=O)CC4CC4)CC3)c3cc[nH]c(=O)c23)cc1`
Result: 1.07

Query: Report IC50 on JAK2 (recombinant purified GST-tagged catalytic domain) (Homo sapiens (Human)) for this entry: CC(C)(C)N1Cc2cc(Nc3nn([C@@]4(CC#N)CCOC4)c4cc[nH]c(=O)c34)ccc2S1(=O)=O (single isomer, unassigned)
Result: 2.24

Query: Report IC50 on JAK2 (recombinant purified GST-tagged catalytic domain) (Homo sapiens (Human)) for this entry: `N#CC[C@@]1(n2nc(Nc3ccc4c(c3)CN(C3CCCC3)C4=O)c3c(=O)[nH]ccc32)CCCOC1`
Result: 1.13

Query: Report IC50 on JAK2 (recombinant purified GST-tagged catalytic domain) (Homo sapiens (Human)) for this entry: `CC(C)(C)OC(=O)N1CC(CC#N)(n2nc(Nc3ccnc(F)c3)c3c(=O)[nH]ccc32)C1`
Result: 43.5

Query: Report IC50 on JAK2 (recombinant purified GST-tagged catalytic domain) (Homo sapiens (Human)) for this entry: CC(C)(C)OC(=O)[C@@H]1CC[C@@](CC#N)(n2nc(Nc3ccc4c(c3)CC(C)(C)C4(O)C(F)(F)F)c3c(=O)[nH]ccc32)CO1 (single isomer, unassigned) [Example 5-164]
Result: 0.68

Query: Report IC50 on JAK2 (recombinant purified GST-tagged catalytic domain) (Homo sapiens (Human)) for this entry: N#CCC1(n2nc(Nc3ccc(C(N)C(F)(F)F)cc3)c3c(=O)[nH]ccc32)CCCC1 (single isomer, unassigned) [Example 5-89]
Result: 1.74

Query: Report IC50 on JAK2 (recombinant purified GST-tagged catalytic domain) (Homo sapiens (Human)) for this entry: `CCOC(=O)N1CCC(CC#N)(n2nc(Nc3ccc(S(=O)(=O)N(C)C)cc3)c3c(=O)[nH]ccc32)CC1`
Result: 0.29

Query: Report IC50 on JAK2 (recombinant purified GST-tagged catalytic domain) (Homo sapiens (Human)) for this entry: `CN(C)S(=O)(=O)c1ccc(Nc2nn(C3(CC#N)CCN(C(=O)Oc4ccccc4)CC3)c3cc[nH]c(=O)c23)cc1`
Result: 0.86

Query: Report IC50 on JAK2 (recombinant purified GST-tagged catalytic domain) (Homo sapiens (Human)) for this entry: `CN(C)S(=O)(=O)c1ccc(Nc2nn(C3(CC#N)CCN(C(=O)C4CCOCC4)CC3)c3cc[nH]c(=O)c23)cc1`
Result: 2.48

Query: Report IC50 on JAK2 (recombinant purified GST-tagged catalytic domain) (Homo sapiens (Human)) for this entry: `COC(=O)N1CCC(CC#N)(n2nc(Nc3ccc(F)cc3)c3c(=O)[nH]ccc32)CC1`
Result: 2

Query: Report IC50 on JAK2 (recombinant purified GST-tagged catalytic domain) (Homo sapiens (Human)) for this entry: `Cc1cc(Nc2nn(C3(CC#N)CCN(c4cc(C(F)(F)F)ccn4)CC3)c3cc[nH]c(=O)c23)ccc1C(=O)N1CCC(F)(F)CC1`
Result: 2.01

* * *

Property: pIC50; scope: individual compounds
target: JAK1 (recombinant purified GST-tagged catalytic domain) (Homo sapiens (Human), UniProt P23458); assay: Jak Biochemical HTRF Assay (JAK1); conditions: [ATP] 31.8 μM
Sequence (P23458 875-1153): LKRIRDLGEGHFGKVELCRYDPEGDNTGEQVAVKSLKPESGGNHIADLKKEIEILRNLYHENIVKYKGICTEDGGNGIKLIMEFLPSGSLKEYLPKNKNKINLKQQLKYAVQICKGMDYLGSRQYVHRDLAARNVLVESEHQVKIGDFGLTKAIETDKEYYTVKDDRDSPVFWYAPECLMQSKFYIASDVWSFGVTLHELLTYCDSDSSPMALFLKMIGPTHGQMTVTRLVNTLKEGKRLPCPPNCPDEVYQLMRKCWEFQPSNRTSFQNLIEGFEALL
Just so you know, pIC50 here is -log10 of the concentration in molar units; reply with that number alone.

Cc1cc(Nc2nn([C@@]3(CC#N)CCN(C(=O)OC(C)(C)C)C[C@H]3F)c3cc[nH]c(=O)c23)ccc1C(=O)N1CCSCC1 [Example 5-279]	9.74
CC(C)(C)NC(c1ccc(Nc2nn([C@]3(CC#N)CC[C@@H](C(=O)OC(C)(C)C)OC3)c3cc[nH]c(=O)c23)cc1)C(F)(F)F (single isomer, unassigned) [Example 5-195]	9.25
CC(C)(C)OC(=O)N1CCC(CC#N)(n2nc(Nc3ccc(F)cc3)c3c(=O)[nH]ccc32)CC1 [Example 5-48]	9.66
CC(C)(C)NC(c1ccc(Nc2nn([C@]3(CC#N)CCCOC3)c3cc[nH]c(=O)c23)cc1)C(F)(F)F (single isomer, unassigned) [Example 5-190]	9.68
CC(C)(C)OC(=O)N1CCC(CC#N)(n2nc(Nc3ccc4c(c3)CNC4)c3c(=O)[nH]ccc32)CC1 [Example 5-66]	9.59
CC(C)OC(=O)C(C)(C)C(O)(c1ccc(Nc2nn([C@]3(CC#N)CC[C@@H](C(=O)OC(C)(C)C)OC3)c3cc[nH]c(=O)c23)cc1)C(F)(F)F (single isomer, unassigned) [Example 5-163]	8.71
N#CCC1(n2nc(Nc3ccc(C(N)C(F)(F)F)cc3)c3c(=O)[nH]ccc32)CCCC1 (single isomer, unassigned) [Example 5-89]	9.30
Cc1cc(Nc2nn([C@]3(CC#N)CC[C@@H](C(=O)OC(C)(C)C)OC3)c3cc[nH]c(=O)c23)ccc1C(=O)N1CCSC1C (single isomer, unassigned) [Example 5-157]	9.72
Cc1cc(Nc2nn([C@@]3(CC#N)CCCC[C@H]3F)c3cc[nH]c(=O)c23)ccc1C(=O)N1CCOCC1 [Example 5-151]	10.05
Cc1cc(Nc2nn([C@]3(CC#N)CCOC[C@@H]3F)c3cc[nH]c(=O)c23)ccc1C(=O)N1CCOCC1 (single isomer, unassigned) [Example 5-258]	10.15

Query: Given the compound CCNC(c1ccc(Nc2nn([C@@]3(CC#N)CCCC[C@H]3F)c3cc[nH]c(=O)c23)cc1)C(F)(F)F (single isomer, unassigned) [Example 5-173] , write its reported pIC50.
Result: 10.15

Query: Given the compound CC(C)(C)N1Cc2cc(Nc3nn([C@]4(CC#N)CCCOC4)c4cc[nH]c(=O)c34)ccc2S1(=O)=O [Example 5-178] , write its reported pIC50.
Result: 10.40

Query: Given the compound CN1Cc2cc(Nc3nn([C@]4(CC#N)CC[C@H](N5CC(F)C5)CC4)c4cc[nH]c(=O)c34)ccc2S1(=O)=O [Example 18-31] , write its reported pIC50.
Result: 8.74

Query: Given the compound CC(C)(C)OC(=O)N1CCC(CC#N)(n2nc(Nc3ccc(C(F)(F)F)cc3)c3c(=O)[nH]ccc32)CC1 [Example 5-8] , write its reported pIC50.
Result: 8.71

Query: Given the compound CC(C)NC(c1ccc(Nc2nn([C@]3(CC#N)CCCOC3)c3cc[nH]c(=O)c23)cc1)C(F)(F)F (single isomer, unassigned) [Example 5-205] , write its reported pIC50.
Result: 9.77

Query: Given the compound N#CC[C@]1(n2nc(Nc3ccc([C@]4(C(F)(F)F)CCCCN4)cc3)c3c(=O)[nH]ccc32)CCOC[C@H]1F (single isomer, unassigned) [Example 5-263] , write its reported pIC50.
Result: 9.32

Query: Given the compound CN(C)S(=O)(=O)c1ccc(Nc2nn(C3(CC#N)CCN(Cc4cccc(F)c4)CC3)c3cc[nH]c(=O)c23)cc1 [Example 8-8] , write its reported pIC50.
Result: 9.54

Query: Given the compound CC(C)NS(=O)(=O)c1ccc(Nc2nn(C3(CC#N)CCCC3)c3cc[nH]c(=O)c23)cc1 [Example 5-130] , write its reported pIC50.
Result: 9.30

Query: Given the compound CC(C)(C)OC(=O)[C@@H]1CC[C@@](CC#N)(n2nc(Nc3ccc(C(O)C(F)(F)F)cc3)c3c(=O)[nH]ccc32)CO1 (single isomer, unassigned) [Example 5-168] , write its reported pIC50.
Result: 9.92

Query: Given the compound N#CC[C@@]1(n2nc(Nc3ccc(C4(C(F)(F)F)CC4)cc3)c3c(=O)[nH]ccc32)CCCOC1 [Example 5-224] , write its reported pIC50.
Result: 9.44

* * *

Property: IC50; scope: individual compounds
molecular target: JAK1 (recombinant purified GST-tagged catalytic domain) (Homo sapiens (Human), UniProt P23458); assay: Jak Biochemical HTRF Assay (JAK1); conditions: [ATP] 31.8 μM
// units = nM; emit number, no label

// worked examples, IC50 included
N#CCC1(n2nc(Nc3ccc(C(F)(F)F)cc3)c3c(=O)[nH]ccc32)CCC2(CC1)OCCO2 [Example 5-83]	1.97
COC(=O)[C@@H]1CC[C@@](CC#N)(n2nc(Nc3ccc(S(C)(=O)=O)cc3)c3c(=O)[nH]ccc32)CO1 (racemic) [Example 5-32]	0.13
CC(C)(C)NC(c1ccc(Nc2nn([C@]3(CC#N)CCCOC3)c3cc[nH]c(=O)c23)cc1)C(F)(F)F (single isomer, unassigned) [Example 5-189]	0.14
CC(C)(C)OC(=O)N1CCC(CC#N)(n2nc(Nc3ccnc(F)c3)c3c(=O)[nH]ccc32)CC1 [Example 5-78]	0.18
CC(C)(C)OC(=O)[C@@H]1CC[C@@](CC#N)(n2nc(Nc3ccc4nc(C(N)=O)ccc4c3)c3c(=O)[nH]ccc32)CO1 [Example 5-223]	0.07

Query: Given the compound CC(C)(C)N1Cc2cc(Nc3nn([C@@]4(CC#N)CCOC4)c4cc[nH]c(=O)c34)ccc2S1(=O)=O (single isomer, unassigned) [Example 5-247] , write its reported IC50.
Result: 0.11

Query: Given the compound CN(C)S(=O)(=O)c1ccc(Nc2nn(C3(CC#N)CCN(C(=O)CN4CCCC4=O)CC3)c3cc[nH]c(=O)c23)cc1 [Example 9-19] , write its reported IC50.
Result: 0.26

Query: Given the compound CC(C)S(=O)(=O)c1ccc(Nc2nn([C@]3(CC#N)CC[C@@H](C(=O)OC(C)(C)C)OC3)c3cc[nH]c(=O)c23)cc1 [Example 5-237] , write its reported IC50.
Result: 0.15

Query: Given the compound Cc1cc(Nc2nn([C@]3(CC#N)CC[C@@H](C(=O)OC(C)(C)C)OC3)c3cc[nH]c(=O)c23)ccc1C(=O)N1CCOCC1C (single isomer, unassigned) [Example 20-8] , write its reported IC50.
Result: 0.15

Query: Given the compound CC(C)(C)OC(=O)[C@@H]1CC[C@@](CC#N)(n2nc(Nc3ccc(S(=O)(=O)N4CCOCC4)cc3)c3c(=O)[nH]ccc32)CO1 [Example 5-203] , write its reported IC50.
Result: 0.15
